In this section, each of the compounds is paired with its reported growth.
Test system: NCI-H322M lung
Assay: NCI-60 one-dose screen, 48 h (100 = growth as untreated, 0 = no growth, -100 = all killed)
Settings: 10 µM
Procedure: Growth inhibition of the NCI-H322M human Non-Small Cell Lung tumor cell line is measured as a screen for anti-cancer activity. Cells are grown in 96 well plates and exposed to the test compound for 48 hours. Compounds are tested at a single concentration, which is 10^-5 M for most compounds. The reported endpoint is percent growth (GI% or GIPRCNT), where numbers from 0 - 100% represent growth inhibition, and numbers from -100% - 0 represent cell death. […]
Compounds without any hit were thinned out: in the full panel of roughly 83,000, 20% have a hit.
Reply with just the number (in %).

Reference set, count: 5
compound: O=C1CCC(N2Cc3cc(NC(=O)COc4ccccc4)ccc3C2=O)C(=O)N1 (stereo not given)
growth [%]: 80.3

compound: O=C(CSc1nnc(-c2ccc3nc(-c4ccccc4)[nH]c3c2)o1)Nc1ccc(Br)cc1
growth [%]: 86.3

compound: O=c1oc2ccc(-c3ccc(F)cc3F)cc2c(=O)n1-c1ccc(F)c(Cl)c1
growth [%]: -1.73

compound: COc1cc2c3c(n(CCCNC(C)C)c(=O)c2cc1OC)-c1nc2c(cc1C3=O)OCO2
growth [%]: 60.3

compound: O=C(NCCCCC(c1ccc(F)cc1)c1ccc(F)cc1)NCCCc1cccnc1
growth [%]: 64.8

I have this compound here, CC1(C)CC[C@]2(C(=O)N3CCOCC3)CC[C@]3(C)C(=CC[C@@H]4[C@@]5(C)CC[C@H](NCO)C(C)(C)[C@@H]5CC[C@]43C)[C@H]2C1 , and I need its recorded growth. -97.8

I have this compound here, N#Cc1ccc(NC(=O)CSc2ccc(-c3ccc(Br)cc3)nn2)cc1 , and I need its recorded growth. 76.6

I have this compound here, O=c1c2ccccc2nc(COc2ccccc2)n1/N=C/c1ccc(N2CCOCC2)cc1 , and I need its recorded growth. 66.6

I have this compound here, CC(=O)c1cc(C(=O)c2ccc3c(c2)NC(=O)CO3)n2ccc3ccccc3c12 , and I need its recorded growth. 87.8

I have this compound here, CC(=O)Nc1ccc(-c2cn(-c3cccc(C(=O)Nc4ccc(Cl)c(C(F)(F)F)c4)c3)nn2)cn1 , and I need its recorded growth. -18.7

I have this compound here, CCCn1c(=O)c2[nH]c(-c3ccc(OCc4nc5ccccc5[nH]4)cc3)nc2n(CCC)c1=O , and I need its recorded growth. 59.7

I have this compound here, COc1ccc(C(=O)/C=C/c2cc(C(F)(F)F)cc(C(F)(F)F)c2)cc1S(N)(=O)=O , and I need its recorded growth. -73.8

I have this compound here, COc1ccc(C2N(c3ccc(Br)cc3)N=C(C(C)=O)N2[C@H]2[C@H](OC(C)=O)O[C@H](COC(C)=O)[C@@H](OC(C)=O)[C@@H]2OC(C)=O)cc1 (stereo not given in full) , and I need its recorded growth. 73.7

I have this compound here, CCN1CCN(c2ccc(NC(=O)Nc3ccc(-c4cc(C(=O)NC(C)C)c5ncccc5n4)cc3)cc2C(F)(F)F)CC1 , and I need its recorded growth. -66

I have this compound here, COc1cc(/C=C/C(=O)c2ccc(NC(=O)CN3C(=O)NC(C)(c4ccccc4)C3=O)cc2)cc(OC)c1OC (stereo not given) , and I need its recorded growth. 56.5
